Measured On: T1, Human ST2-his (human, UniProt Q01638-2 19-328, limits assumed)
T1 construct: Expressed in CHO-K1; The printed range starts at Met1; also called human ST2 fused with a 6-histidine tag at the C-terminus
T1 sequence: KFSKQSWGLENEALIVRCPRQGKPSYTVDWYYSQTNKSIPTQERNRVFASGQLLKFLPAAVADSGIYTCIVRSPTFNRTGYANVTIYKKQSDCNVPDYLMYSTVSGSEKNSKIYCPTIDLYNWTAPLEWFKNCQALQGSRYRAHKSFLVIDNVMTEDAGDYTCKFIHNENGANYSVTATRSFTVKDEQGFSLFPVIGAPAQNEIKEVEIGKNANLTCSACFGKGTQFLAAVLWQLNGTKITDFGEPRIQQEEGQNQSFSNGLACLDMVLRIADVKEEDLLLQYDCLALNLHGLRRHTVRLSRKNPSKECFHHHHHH
Protocol Description: SPR Biacore X100, antibody captured on protein A chip, human ST2-his injected, dissociation at pH 5.5
koff overview

Which koff value is on record for 5888-379-H2L2 (antibody, human IgG4 S228P, kappa, V domains shown, Humanized antibody) VH: QVQLVQSGAEVKKPGASVKVSCKASGYTFINYGMNWVRQAPGQRLEWMGWINTYIGEPTYGDNFKGRVTITRDTSASTAYMELSSLRSEDTAVYYCAREGDAFAYWGQGTLVTVSS VL: DIVMTQSPDSLAVSLGERATINCKSSQSLLYSGNQNNYLAWYQQKPGQPPKLLIYGASTRESGVPDRFSGSGSGTDFTLTISSLQAEDVAVYYCQNDHSYPYTFGGGTKVEIKR ?
0.0269 s⁻¹

Which koff value is on record for 5887-41-H1L0 (antibody, human IgG4 S228P, kappa, V domains shown, Humanized antibody) VH: QVQLQESGPGLVKPSQTLSLTCTVSGYSITSDYAWDWIRQPPGKGLEWIGYIRYSGDTYYNPSLKSRVTISRDTSKNQFSLKLSSVTAADTAVYYCATTMMDTMDYWGQGTLVTVSS VL: DIVLTQSPASLAVSPGQRATITCRASKSVSTSGNSYMHWYQQKPGQPPKLLIYLASNLESGVPARFSGSGSGTDFTLTINPVEANDTANYYCQHSREFPLTFGQGTKLEIKR ?
0.0001 s⁻¹

Which koff value is on record for 5888-379-H2L1 (antibody, human IgG4 S228P, kappa, V domains shown, Humanized antibody) VH: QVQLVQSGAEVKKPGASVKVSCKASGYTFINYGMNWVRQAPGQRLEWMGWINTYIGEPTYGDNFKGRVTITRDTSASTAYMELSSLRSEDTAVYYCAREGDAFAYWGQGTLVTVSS VL: DIQMTQSPSSLSASVGDRVTITCKSSQSLLYSGNQNNYLAWYQQKPGKVPKLLIYGASTRESGVPSRFSGSGSGTDFTLTISSLQPEDLATYYCQNDHSYPYTFGGGTKVEIKR ?
0.00575 s⁻¹
